# STUDY_SYSTEM: ER (Homo sapiens)
# Construct: endogenous in cells; probably T47D or MCF-7
# TEST_DESCRIPTION: In-cell western blot analysis, relative ER percentage (compounds B1-B126)
# Type: cell-based
# MEASUREMENT_PARAMETERS: ER degradation, 16 hours, read-out: ICW DC50
PROPERTY_MEASURED: DC50

Query block: Quick one: give measured DC50 for COc1cc(N2CC3(CCC(CN4CCN5c6ccc7c(c6OC[C@@H]5C4)CN(C4CCC(=O)NC4=O)C7=O)CC3)C2)ccc1[C@@H]1c2ccc3[nH]ncc3c2C[C@@H](C)N1CC(F)F (some centres unmarked)
Result block: 0.01 to 0.1 µM

Query block: Quick one: give measured DC50 for COc1cc(N2CCC3(CC2)OCC(CN2CCC4(CC2)COc2c4ccc4c2CN(C2CCC(=O)NC2=O)C4=O)CO3)ccc1[C@@H]1c2ccc3[nH]ncc3c2C[C@@H](C)N1CC(F)F (some centres unmarked)
Result block: < 0.01 µM

Query block: Quick one: give measured DC50 for C[C@@H]1Cc2c(ccc3[nH]ncc23)[C@@H](c2ccc(N3CC4(CC(CN5CCN6c7cc8c(cc7OC[C@@H]6C5)C(=O)N(C5CCC(=O)NC5=O)C8)CO4)C3)cn2)N1CC(F)(F)F (some centres unmarked)
Result block: < 0.01 µM

Query block: Quick one: give measured DC50 for C[C@@H]1Cc2c(ccc3[nH]ncc23)[C@@H](c2c(F)cc(NC3CC4(C3)CN(C(=O)CN3CCN5c6cc7c(cc6OC[C@@H]5C3)C(=O)N(C3CCC(=O)NC3=O)C7)C4)cc2F)N1CC(F)F (some centres unmarked)
Result block: < 0.01 µM

Query block: Quick one: give measured DC50 for C[C@@H]1Cc2c(ccc3[nH]ncc23)[C@@H](c2ccc(N3CCC4(CCN(CC(=O)N5Cc6cc7c(cc6C5)C(=O)N(C5CCC(=O)NC5=O)C7=O)CC4)CC3)cn2)N1CC(F)(F)F (some centres unmarked)
Result block: > 0.1 µM
